The reported measurements were obtained from PubChem BioAssay AID1963858.

System: HOP-62 multicell spheroids with HUVEC/MSC, viability
Assay: Anticancer human tumor HOP-62 cell line growth inhibition [KRAS2];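 also: viability read after a week of compound exposure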
Details: curve of first compound; second compound 0.316 µM
Excerpt: Multicellular complex tumor spheroid response to RAS pathway inhibitors in combination with a targeted agents in patient-derived cell lines with oncogenic KRAS variants from multiple cancer types A high-throughput screen of multi-cell type tumor spheroids was designed to identify active combinations of targeted small molecules and KRAS pathway inhibitors. […] Compounds. […] If the clinical Cmax for an agent had not been determined, the highest concentration tested was 10 microM. […]
assayReadout: IC50 (nM)

# compound, comparativeSign, val
measured = [
    ("O=C(c1cc(Cc2n[nH]c(=O)c3ccccc23)ccc1F)N1CCN(C(=O)C2CC2)CC1 + C=CC(=O)N1CCN(c2nc(=O)n(-c3c(C)ccnc3C(C)C)c3nc(-c4c(O)cccc4F)c(F)cc23)C(C)C1", "=", 271),
    ("CC(=O)Nc1cccc(-n2c(=O)n(C3CC3)c(=O)c3c(Nc4ccc(I)cc4F)n(C)c(=O)c(C)c32)c1 + C=CC(=O)N1CCN(c2nc(OCC3CCCN3C)nc3c2CCN(c2cccc4cccc(C)c24)C3)CC1CC#N", "=", 0.406),
    ("CC(C)n1nc(-c2ccc3oc(N)nc3c2)c2c(N)ncnc21 + C=CC(=O)N1CCN(c2nc(OCC3CCCN3C)nc3c2CCN(c2cccc4cccc(C)c24)C3)CC1CC#N", "<", 0.316),
    ("CC1(C)CCC(CN2CCN(c3ccc(C(=O)NS(=O)(=O)c4ccc(NCC5CCOCC5)c([N+](=O)[O-])c4)c(Oc4cnc5[nH]ccc5c4)c3)CC2)=C(c2ccc(Cl)cc2)C1 + CNCc1ccccc1-c1csc(C(C)Nc2nc(C)nc3cc(OC)c(OC)cc23)c1", "=", 4570),
    ("COC(=O)c1ccc2c(C(=Nc3ccc(N(C)C(=O)CN4CCN(C)CC4)cc3)c3ccccc3)c(O)[nH]c2c1 + CNCc1ccccc1-c1csc(C(C)Nc2nc(C)nc3cc(OC)c(OC)cc23)c1", "=", 49.3),
    ("O=C(c1cc(Cc2n[nH]c(=O)c3ccccc23)ccc1F)N1CCN(C(=O)C2CC2)CC1 + COc1cc2nc(C)nc(NC(C)c3cc(N)cc(C(F)(F)F)c3)c2cc1OC1CCOC1", "=", 7020),
    ("Cn1nccc1Nc1nccc(-c2cc3c(s2)C(C)(C)N(CCN2CCOCC2)C3=O)n1 + CNCc1ccccc1-c1csc(C(C)Nc2nc(C)nc3cc(OC)c(OC)cc23)c1", "=", 859),
]

* * *

Test system: HOP-62 multicell spheroids with HUVEC/MSC, viability
Test: Anticancer human tumor HOP-62 cell line growth inhibition [KRAS2];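 also: viability read after a week of compound exposure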;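 as to viability, T/C: 100% = DMSO vehicle-treated spheroids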
Settings: second compound 0.316 µM; first compound 0.01 µM; stronger effect = lower value

# molecule, endpointUnit, viability, T/C
measured = [
    ("CC1COCCN1c1cc(-c2ccnn2C)c2ccnc(-c3ccn[nH]3)c2n1 (centres undefined) + CNCc1ccccc1-c1csc(C(C)Nc2nc(C)nc3cc(OC)c(OC)cc23)c1", "%", 106),
    ("CC(C)n1nc(-c2ccc3oc(N)nc3c2)c2c(N)ncnc21 + COc1cc2nc(C)nc(NC(C)c3cc(N)cc(C(F)(F)F)c3)c2cc1OC1CCOC1", "%", 26.9),
    ("CC(=O)OC12COC1CC(O)C1(C)C(=O)C(O)C3=C(C)C(OC(=O)C(O)C(NC(=O)OC(C)(C)C)c4ccccc4)CC(O)(C(OC(=O)c4ccccc4)C21)C3(C)C (centres undefined) + COc1cc2nc(C)nc(NC(C)c3cc(N)cc(C(F)(F)F)c3)c2cc1OC1CCOC1", "%", 38.5),
    ("Cn1ncnc1[C@H]1c2n[nH]c(=O)c3cc(F)cc(c23)N[C@@H]1c1ccc(F)cc1 + CC1OCC2(CCN(c3cnc(Sc4ccnc(N)c4Cl)c(N)n3)CC2)C1N", "%", 69.3),
    ("CCN1CCN(Cc2ccc(Nc3ncc(F)c(-c4cc(F)c5nc(C)n(C(C)C)c5c4)n3)nc2)CC1 + CNCc1ccccc1-c1csc(C(C)Nc2nc(C)nc3cc(OC)c(OC)cc23)c1", "%", 90.4),
    ("CN(C)C/C=C/C(=O)Nc1cc2c(Nc3ccc(F)c(Cl)c3)ncnc2cc1O[C@H]1CCOC1 + C=CC(=O)N1CCN(c2nc(OCC3CCCN3C)nc3c2CCN(c2cccc4cccc(C)c24)C3)CC1CC#N", "%", 48.8),
    ("CC(=O)OC12COC1CC(O)C1(C)C(=O)C(O)C3=C(C)C(OC(=O)C(O)C(NC(=O)OC(C)(C)C)c4ccccc4)CC(O)(C(OC(=O)c4ccccc4)C21)C3(C)C (centres undefined) + CNCc1ccccc1-c1csc(C(C)Nc2nc(C)nc3cc(OC)c(OC)cc23)c1", "%", 34.3),
    ("Cn1ncnc1[C@H]1c2n[nH]c(=O)c3cc(F)cc(c23)N[C@@H]1c1ccc(F)cc1 + C=CC(=O)N1CCN(c2nc(OCC3CCCN3C)nc3c2CCN(c2cccc4cccc(C)c24)C3)CC1CC#N", "%", 38.5),
    ("Cn1ncnc1[C@H]1c2n[nH]c(=O)c3cc(F)cc(c23)N[C@@H]1c1ccc(F)cc1 + COc1cc2nc(C)nc(NC(C)c3cc(N)cc(C(F)(F)F)c3)c2cc1OC1CCOC1", "%", 94.2),
    ("Cn1ncnc1[C@H]1c2n[nH]c(=O)c3cc(F)cc(c23)N[C@@H]1c1ccc(F)cc1 + CNCc1ccccc1-c1csc(C(C)Nc2nc(C)nc3cc(OC)c(OC)cc23)c1", "%", 83.7),
    ("CC1COCCN1c1cc(-c2ccnn2C)c2ccnc(-c3ccn[nH]3)c2n1 (centres undefined) + C=CC(=O)N1CCN(c2nc(=O)n(-c3c(C)ccnc3C(C)C)c3nc(-c4c(O)cccc4F)c(F)cc23)C(C)C1", "%", 66.7),
    ("CC(C)n1nc(-c2ccc3oc(N)nc3c2)c2c(N)ncnc21 + CNCc1ccccc1-c1csc(C(C)Nc2nc(C)nc3cc(OC)c(OC)cc23)c1", "%", 27.9),
    ("CN(C)C/C=C/C(=O)Nc1cc2c(Nc3ccc(F)c(Cl)c3)ncnc2cc1O[C@H]1CCOC1 + C=CC(=O)N1CCN(c2nc(=O)n(-c3c(C)ccnc3C(C)C)c3nc(-c4c(O)cccc4F)c(F)cc23)C(C)C1", "%", 65),
    ("Cn1ncnc1[C@H]1c2n[nH]c(=O)c3cc(F)cc(c23)N[C@@H]1c1ccc(F)cc1 + C=CC(=O)N1CCN(c2nc(=O)n(-c3c(C)ccnc3C(C)C)c3nc(-c4c(O)cccc4F)c(F)cc23)C(C)C1", "%", 56.1),
]
